- procedureText: Rat pharmacokinetics, plasma and urine, IV and PO
- Format: in vivo
- assaySetup: rat plasma; 10 mg/kg PO or 3 mg/kg IV; read-out: clearance (Cl)
metric: clearance (mL/min/kg)
Respond numerically; units are mL/min/kg and should not be typed.

Lookup result for CC(=O)N[C@@H]1[C@H](Oc2cccc(C(F)(F)F)c2-c2cccc(NS(C)(=O)=O)c2)OC(CO)[C@H](O)[C@@H]1O (stereo partly shown) ; measured clearance: 57

* * *

- measuredTarget: FmlHLD (Escherichia coli, UniProt P77588)
- Construct: 6xHis (C); made in house; host or cells: E. coli C600, periplasm, pTRC99a
- Sequence (P77588 25-182): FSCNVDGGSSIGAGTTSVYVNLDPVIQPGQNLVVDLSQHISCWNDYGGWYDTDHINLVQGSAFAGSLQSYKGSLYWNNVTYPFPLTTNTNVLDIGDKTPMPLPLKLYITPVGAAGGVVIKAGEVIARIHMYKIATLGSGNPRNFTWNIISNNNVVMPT
- procedureText: biochemical
- Type: binding, E. coli
- assaySetup: IC50 (μM), Table 6; sulfonamides 3078-3090
- Procedure: Thereafter, wells were incubated with 200 μl blocking buffer (PBS+1% BSA) for 2 hours at 23° C., followed by incubation with 100 μl biotinylated FmlHLD diluted in blocking buffer to 20 μg/ml in the presence or absence of the tested compounds for 1 hr at 23° C. […] After a final round of washing, plates were developed with 100 μl Tetramethylbenzidine (TMB, BD Biosciences) substrate, quenched within 1-2 min with 50 μl […], and absorbance measured at 450 nm. […]
Could you please report measured log10 of IC50 for the items listed next?
Log10 applied to IC50; unit prior to transform: µM.

Documented log10 of IC50 of Cc1cccc(O[C@@H]2OC(CO)[C@H](O)[C@H](O)[C@@H]2NC(=O)C(F)(F)F)c1-c1cccc(NS(C)(=O)=O)c1 (some centres unmarked) : -0.96

// recorded log10 of IC50 for CC(=O)N[C@@H]1[C@H](Oc2cccc(C)c2-c2cccc(NS(=O)(=O)N(C)C)c2)OC(CO)[C@H](O)[C@@H]1O (some centres unmarked) : -0.89

Documented log10 of IC50 of CC(=O)N[C@H]1[C@H](Oc2cccc(F)c2-c2cccc(NS(C)(=O)=O)c2)O[C@H](CO)[C@H](O)[C@@H]1O : -0.82

The recorded log10 of IC50 for entry COc1cccc(O[C@@H]2OC(CO)[C@H](O)[C@H](O)[C@@H]2NC(C)=O)c1-c1cccc(NS(C)(=O)=O)c1 (some centres unmarked) equals -0.82

Entry CC(=O)N[C@@H]1[C@H](Oc2cccc(C(=O)O)c2-c2cccc(NS(C)(=O)=O)c2)OC(CO)[C@H](O)[C@@H]1O (some centres unmarked) ; log10 of IC50 = -0.89

Note to self: log10 of IC50 recorded for CC(=O)N[C@H]1[C@H](Oc2cccc(C)c2-c2cccc(NS(=O)(=O)C3CC3)c2)O[C@H](CO)[C@H](O)[C@@H]1O was -0.92

Reported log10 of IC50 ( Cc1cccc(O[C@@H]2O[C@H](CO)[C@H](O)[C@H](O)[C@H]2NS(C)(=O)=O)c1-c1cccc(NS(C)(=O)=O)c1 ) = 0.54

So for CC(=O)N[C@@H]1[C@H](Oc2cccc(C#N)c2-c2cccc(NS(C)(=O)=O)c2)OC(CO)[C@H](O)[C@@H]1O (some centres unmarked) , the logged log10 of IC50 turned out to be -0.96

The reported log10 of IC50 of the compound CC(=O)N[C@H]1[C@H](Oc2ccc3ccccc3c2-c2cccc(NS(C)(=O)=O)c2)O[C@H](CO)[C@H](O)[C@@H]1O was -0.74

The compound CC(=O)N[C@H]1[C@H](Oc2cccc([N+](=O)[O-])c2-c2cccc(NS(C)(=O)=O)c2)O[C@H](CO)[C@H](O)[C@@H]1O showed log10 of IC50 equal to -0.96

Input CC(=O)N[C@@H]1[C@H](Oc2cccc(C(=O)OCc3ccccc3)c2-c2cccc(NS(C)(=O)=O)c2)OC(CO)[C@H](O)[C@@H]1O (some centres unmarked) . Output log10 of IC50: -0.74

* * *

- measuredTarget: FmlHLD (Escherichia coli)
- Construct: 6xHis (C); made in house; host or cells: E. coli C600, periplasm, pTRC99a
- procedureText: biochemical
- Format: binding, E. coli
- assaySetup: read-out: PI100 (percent inhibition), galactoside at 100 μM; mean with standard error of the mean
- Procedure: Thereafter, wells were incubated with 200 μl blocking buffer (PBS+1% BSA) for 2 hours at 23° C., followed by incubation with 100 μl biotinylated FmlHLD diluted in blocking buffer to 20 μg/ml in the presence or absence of the tested compounds for 1 hr at 23° C. […] After a final round of washing, plates were developed with 100 μl Tetramethylbenzidine (TMB, BD Biosciences) substrate, quenched within 1-2 min with 50 μl […], and absorbance measured at 450 nm. […]
Assign inhibition at 100 µM to each entry below.
Give a bare numeral; the unit % is implied.

Item CC(=O)N[C@@H]1[C@@H](O)[C@@H](O)[C@@H](CO)O[C@H]1O (stereo in doubt) [GalNAc, N-acetylgalactosamine, reference compound] ; assay system FmlHLD (Escherichia coli); inhibition at 100 µM reported as 28.5

Entry COc1ccccc1O[C@@H]1O[C@H](CO)[C@H](O)[C@H](O)[C@H]1O [Compound 5β, 2-methoxyphenyl β-D-galactopyranoside] , tested on FmlHLD (Escherichia coli), has a reported inhibition at 100 µM of 97

Noted inhibition at 100 µM for Cc1ccc(O[C@@H]2O[C@H](CO)[C@H](O)[C@H](O)[C@H]2O)cc1 [Compound 8β, 4-methylphenyl β-D-galactopyranoside] , tested on FmlHLD (Escherichia coli): 86

* * *

Give inhibition at 1 µM for every item shown.
- measuredTarget: FmlHLD (Escherichia coli)
- Construct: 6xHis (C); made in house; host or cells: E. coli C600, periplasm, pTRC99a
- procedureText: biochemical
- Assay type: binding, E. coli
- assaySetup: read-out: % Inhibition at [μM] [1], compound at 1 μM; inhibition of FmlHLD binding to ds-BSM
The figure you give is taken to be in %; do not add the unit.

GET /values?item= CC(=O)N[C@H]1[C@H](Oc2ccccc2-c2cccc(C(=O)O)c2)O[C@H](CO)[C@H](O)[C@@H]1O [Compound 200b-GalNAc] &system= FmlHLD (Escherichia coli) returns inhibition at 1 µM: 35.1

Response field inhibition at 1 µM (FmlHLD (Escherichia coli)) for item CC(=O)N[C@H]1[C@H](Oc2ccc3cnccc3c2)O[C@H](CO)[C@H](O)[C@@H]1O [AM2007] : 12.6

Form field, inhibition at 1 µM with FmlHLD (Escherichia coli), item CC(=O)N[C@H]1[C@H](Oc2cccc3ccncc23)O[C@H](CO)[C@H](O)[C@@H]1O (stereo in doubt) [AM1186] : 23.5

The observed inhibition at 1 µM for CC(=O)N[C@H]1[C@H](Oc2ccc3cccnc3c2)O[C@H](CO)[C@H](O)[C@@H]1O [AM1180] when tested with FmlHLD (Escherichia coli) stands at 15.4

// inhibition at 1 µM (FmlHLD (Escherichia coli)) for OC[C@H]1O[C@@H](Oc2ccccc2-c2ccccc2)[C@H](O)[C@@H](O)[C@H]1O [Compound 113f2] = 8.1

Field inhibition at 1 µM (system: FmlHLD (Escherichia coli)) for entry CC(=O)N[C@H]1[C@H](Oc2ccccc2-c2cccc(O)c2)O[C@H](CO)[C@H](O)[C@@H]1O [AM2021] = 17.7

The observed inhibition at 1 µM for CC(=O)N[C@H]1[C@H](Oc2cccc3ccc(C)nc23)O[C@H](CO)[C@H](O)[C@@H]1O [AM1179] when tested with FmlHLD (Escherichia coli) stands at 25.2

* * *

Record form. Attribute: inhibition at 0.1 µM. Fill in for each entry.
- measuredTarget: FmlHLD (Escherichia coli)
- Construct: 6xHis (C); made in house; host or cells: E. coli C600, periplasm, pTRC99a
- procedureText: biochemical
- Assay type: binding, E. coli
- assaySetup: read-out: % Inhibition at [μM] [0.1], compound at 0.1 μM (100 nM); inhibition of FmlHLD binding to ds-BSM
- Protocol: Thereafter, wells were incubated with 200 μl blocking buffer (PBS+1% BSA) for 2 hours at 23° C., followed by incubation with 100 μl biotinylated FmlHLD diluted in blocking buffer to 20 μg/ml in the presence or absence of the tested compounds for 1 hr at 23° C. […] After a final round of washing, plates were developed with 100 μl Tetramethylbenzidine (TMB, BD Biosciences) substrate, quenched within 1-2 min with 50 μl […], and absorbance measured at 450 nm. […]
Write down the numeric answer in % and omit the unit.

inhibition at 0.1 µM recorded for this molecule, COc1ccc(O)cc1-c1ccccc1O[C@@H]1O[C@H](CO)[C@H](O)[C@H](O)[C@H]1NC(C)=O , is 7.1

Sample COc1ccc(OS(C)(=O)=O)cc1-c1ccccc1O[C@@H]1O[C@H](CO)[C@H](O)[C@H](O)[C@H]1NC(C)=O ; inhibition at 0.1 µM observed: 2.5

What the record says about CC(=O)N[C@H]1[C@H](Oc2ccccc2-c2cccc(NS(C)(=O)=O)c2)O[C@H](CO)[C@H](O)[C@@H]1O : inhibition at 0.1 µM is 16.5

Lab note: measured inhibition at 0.1 µM of CC(=O)Nc1cccc(-c2ccccc2O[C@@H]2O[C@H](CO)[C@H](O)[C@H](O)[C@H]2NC(C)=O)c1 was 14.8

Per the record, CS(=O)(=O)Nc1cccc(-c2ccccc2O[C@@H]2O[C@H](CO)[C@H](O)[C@H](O)[C@H]2O)c1 has inhibition at 0.1 µM of 1.6

For this molecule ( CCOC(=O)c1ccc(OC)c(-c2ccccc2O[C@@H]2O[C@H](CO)[C@H](O)[C@H](O)[C@H]2NC(C)=O)c1 ), measured inhibition at 0.1 µM is 0

Lab note: CC(=O)N[C@H]1[C@H](Oc2ccccc2-c2cccc(S(C)(=O)=O)c2)O[C@H](CO)[C@H](O)[C@@H]1O gave inhibition at 0.1 µM of 0.1

Noted for COc1ccc(C(=O)O)cc1-c1ccccc1O[C@@H]1O[C@H](CO)[C@H](O)[C@H](O)[C@H]1NC(C)=O : its inhibition at 0.1 µM reads 0

The recorded inhibition at 0.1 µM for entry COC(=O)Nc1cccc(-c2ccccc2O[C@@H]2O[C@H](CO)[C@H](O)[C@H](O)[C@H]2NC(C)=O)c1 equals 0

Memo: O=C(O)c1cc(-c2ccccc2O[C@@H]2O[C@H](CO)[C@H](O)[C@H](O)[C@H]2O)cc([N+](=O)[O-])c1 , reported inhibition at 0.1 µM: 7.6

Lab note: measured inhibition at 0.1 µM of CNC(=O)c1cccc(-c2ccccc2O[C@@H]2O[C@H](CO)[C@H](O)[C@H](O)[C@H]2O)c1 was 0

Recorded inhibition at 0.1 µM (molecule CC(=O)N[C@H]1[C@H](Oc2ccccc2-c2cccc(OS(C)(=O)=O)c2)O[C@H](CO)[C@H](O)[C@@H]1O ): 2

inhibition at 0.1 µM reading for CC(=O)N[C@H]1[C@H](Oc2ccccc2-c2cccc(CO)c2)O[C@H](CO)[C@H](O)[C@@H]1O : 2
